# Test system: HFL-1 cells
# assay: IL8 assay (S1P induced IL-8 production)
# Type: cell-based
# conditions: Homo sapiens, HFL1; S1P (1 μM) induced IL-8, HFL-1 cells, without HSA
quantity_name: EC50 (nM)
Report only the number, with the unit nM understood.

Value of EC50 reported for the compound CCOc1cc(NC(=O)NCc2cc(C)c(-c3cn(C4CCOC4)nc3C(F)(F)F)nn2)cc(C(F)(F)F)n1 (stereo not drawn) [Compound 52] is 7.8

Value of EC50 reported for the compound CCOc1nc(C)cc(N/C(=N/C#N)NCc2cc(C)c(-c3cn(C)nc3C(F)(F)F)nn2)c1C [Compound 78] is 1090

Value of EC50 reported for the compound CCOc1ncc(NC(=O)NCc2cc(C)c(N3CC(C)OC(C)C3)nn2)cc1C(F)(F)F (stereo not drawn) [Compound 85] is 427

Value of EC50 reported for the compound Cn1cc(-c2nnc(CNC(=O)Nc3cc(Cl)nc(OCC(F)F)c3)cc2N2CC(F)(F)C2)c(C(F)(F)F)n1 [Compound 60] is 166

Value of EC50 reported for the compound CCOc1cc(NC(=O)NCc2cc(C)c(-c3cn(CCOC)nc3C(F)(F)F)nn2)cc(C(F)(F)F)n1 [Compound 53] is 6.6

Value of EC50 reported for the compound CCOc1cc(NC(=O)NCc2cc(C)c(N3CC(C)OC(C)C3)nn2)cc(C(F)(F)F)n1 (stereo not drawn) [Compound 87] is 82

Value of EC50 reported for the compound CCOc1nc(C)cc(NC(=O)NCc2cc(C)c(-c3cn(C)nc3C(F)(F)F)nn2)c1C [Compound 72] is 2

Value of EC50 reported for the compound Cc1cc(CNC(=O)Nc2cc(OCC3CC(F)(F)C3)nc(C(F)(F)F)c2)nnc1-c1cn(C)nc1C(F)(F)F [Compound 42] is 50.9

Value of EC50 reported for the compound Cc1cc(CNC(=O)Nc2cc(Cl)nc(OCC(F)F)c2)nnc1N1CC(S(C)(=O)=O)C1 [Compound 92] is 432

Value of EC50 reported for the compound Cc1cc(CNC(=O)Nc2cc(OC3CCOCC3)nc(C(F)(F)F)c2)nnc1-c1cn(C)nc1C(F)(F)F [Compound 40] is 142

Value of EC50 reported for the compound CCOc1cc(NC(=O)NCc2cc(C)c(N3CC(C)OC(C)C3)nn2)cc(Cl)n1 (stereo not drawn) [Compound 82] is 53.5

Value of EC50 reported for the compound CN(C)c1cc(CNC(=O)Nc2cc(Cl)nc(OCC(F)F)c2)nnc1-c1cn(C)nc1C(F)(F)F [Compound 63] is 55.4

Value of EC50 reported for the compound Cc1cc(CNC(=O)Nc2cc(C#N)nc(OCC(F)F)c2C)nnc1-c1cn(C)nc1C(F)(F)F [Compound 59] is 0.9

Value of EC50 reported for the compound CCOc1cc(NC(=O)NCc2cc(C)c(-c3cn(CC4COCCO4)nc3C(F)(F)F)nn2)cc(C(F)(F)F)n1 (stereo not drawn) [Compound 55] is 35.8

Value of EC50 reported for the compound Cc1cc(CNC(=O)Nc2cc(Cl)nc(Cl)c2)nnc1-c1cn(C)nc1C(F)(F)F [Compound 21] is 11.3

* * *

For each record, write down the corresponding pEC50.
# target: human GPCR sphingosine 1-phosphate receptor 1 (S1PR1) (Homo sapiens)
# Sequence (P21453 whole entry): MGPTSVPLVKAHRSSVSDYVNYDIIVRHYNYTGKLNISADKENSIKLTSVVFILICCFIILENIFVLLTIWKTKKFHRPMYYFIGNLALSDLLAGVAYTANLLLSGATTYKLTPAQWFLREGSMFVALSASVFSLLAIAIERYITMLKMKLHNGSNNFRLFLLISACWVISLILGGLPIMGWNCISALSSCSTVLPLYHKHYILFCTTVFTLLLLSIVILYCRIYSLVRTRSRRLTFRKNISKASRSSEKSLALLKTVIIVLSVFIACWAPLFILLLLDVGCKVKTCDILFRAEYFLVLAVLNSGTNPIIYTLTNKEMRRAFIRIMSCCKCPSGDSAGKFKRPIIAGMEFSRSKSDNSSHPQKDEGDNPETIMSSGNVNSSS
# assay: S1PR1 selectivity assay (Ca2+ flux, antagonist)
# conditions: S1P1 antagonist EC50, CHO cells overexpressing human S1PR1 and Gq protein
Please keep in mind that pEC50 is minus log10 of the molar concentration; only the number is needed.

Value of pEC50 reported for the compound Cc1cc(CNC(=O)Nc2cc(Cl)nc(OCC(F)F)c2)nnc1N1CCOC(C(F)(F)F)C1 (stereo not drawn) is 5.42

Value of pEC50 reported for the compound CCOc1cc(NC(=O)NCc2cc(C)c(-c3cn(C)nc3C3CC3)nn2)cc(C(F)(F)F)n1 is 5.60

Value of pEC50 reported for the compound Cc1cc(CNC(=O)Nc2cc(C#N)nc(OCC(F)F)c2)nnc1-c1cn(C)nc1C(F)(F)F is 5.18

Value of pEC50 reported for the compound CCOc1nc(C(F)(F)F)cc(NC(=O)NCc2cc(C)c(-c3cn(C)nc3C(F)(F)F)nn2)c1CC is 5.18

Value of pEC50 reported for the compound CN(C)c1cc(CNC(=O)Nc2cc(Cl)nc(OCC(F)F)c2)nnc1-c1cn(C)nc1C(F)(F)F is 5.68
